# GI50 per record follows
Tested on: SN12C
Protocol details: NCI tumour cell line growth inhibition, 48 h
Calls of active or inactive are those of the source. No stated cut-off is given here; in the data, active = GI50 up to about 1.1 µM and inactive = higher.
Measured endpoint: GI50

>>> reported_result("Cc1nc2ccccc2n1CCc1nc2ccccc2[nH]1")
"> 100 µM (inactive)"
>>> reported_result("CCCCOC(C)(C)/C=C/C(O)[C@](C)(O)[C@H]1[C@H](O)C[C@@]2(C)[C@@H]3CCc4c(cc(OC5OC(CO)C(O)C(O)C5O)c(O)c4C)C3(C)C(=O)C[C@]12C (stereo not given in full)")
"> 100 µM (inactive)"
>>> reported_result("NC(=S)NNC(=O)CCC(=O)Nc1ccc(Cl)cc1Cl")
"> 100 µM (inactive)"
>>> reported_result("O=C(c1ccccc1)c1cccc(C(=O)c2ccccc2)c1")
"> 100 µM (inactive)"
>>> reported_result("C/C=C/C[C@@H](C)C(=O)C1C(=O)N[C@@H](C(C)C)C(=O)N(C)CC(=O)N(C)[C@@H](CC(C)C)C(=O)N[C@@H](C(C)C)C(=O)N(C)[C@@H](CC(C)C)C(=O)N[C@@H](C)C(=O)N[C@@H](C)C(=O)N(C)[C@@H](CC(C)C)C(=O)N(C)[C@@H](CC(C)C)C(=O)N(C)[C@@H](C(C)C)C(=O)N1C (stereo not given in full)")
"5.58 µM (inactive)"

====

Test system: PC-3
Protocol details: NCI tumour cell line growth inhibition, 48 h
The source made the active and inactive calls. Cut-off read from the data, not from the text of the source: active = GI50 up to about 1.1 µM and inactive = higher.
Measured endpoint: GI50

>>> reported_result("CCCCCCCCCCCCOCCCOP(=O)([O-])OCC[N+](C)(C)C")
"2.18 µM (inactive)"
>>> reported_result("CC(=O)Oc1cc(/C=C/c2ccc(O)cc2)cc(OC(C)=O)c1")
"21.5 µM (inactive)"
>>> reported_result("C=CC1=C(C)c2cc3[nH]c(c4c5nc(cc6[nH]c(cc1n2)c(C)c6CC)C=C5C(=O)C4C(=O)OC)C(CCC(=O)OC/C=C(\\C)CCCC(C)CCCC(C)CCCC(C)C)C3C.C=CC1=C(C)c2cc3[nH]c(c4c5nc(cc6[nH]c(cc1n2)c(C=O)c6CC)C=C5C(=O)C4C(=O)OC)C(CCC(=O)OC/C=C(\\C)CCCC(C)CCCC(C)CCCC(C)C)C3C (stereo not drawn)")
"> 100 µM (inactive)"
>>> reported_result("C/C(Cl)=N\\OC(=O)Nc1ccc(C)cc1")
"15.8 µM (inactive)"
>>> reported_result("C=C1C(=O)OC2C1C(OC(=O)/C(C)=C/C)CC(O)(CCl)C1C(O)C=C(C)C21O (stereo not drawn)")
"21.7 µM (inactive)"
>>> reported_result("C=C(Cl)/C(=C\\Br)CCC(Cl)C(C)C.C=C(Cl)/C(=C\\Cl)CCC(Cl)C(C)C (stereo not drawn)")
"19.8 µM (inactive)"
>>> reported_result("N=C(N)NS(=O)(=O)c1ccc(NCc2c3ccccc3nc3ccccc23)cc1")
"16.1 µM (inactive)"
>>> reported_result("COc1ccc(C(SCCO)(c2ccccc2)c2ccc(OC)cc2)cc1")
"14.5 µM (inactive)"
>>> reported_result("CC(C)OC(=O)OCSc1ccccc1/N=C/c1cccc([N+](=O)[O-])c1")
"> 10 µM (inactive)"
>>> reported_result("OCCN1c2ccccc2Sc2ccccc21")
"> 10 µM (inactive)"
>>> reported_result("O=[N+]([O-])c1ccc(N/N=C2/CC3=C2CCCCCCCCCC3)c([N+](=O)[O-])c1")
"> 100 µM (inactive)"
>>> reported_result("O=C1C(N2CCNCC2)=C(Cl)C(=O)c2ncccc21")
"> 10 µM (inactive)"
>>> reported_result("COc1cc(C/C=C/c2ccccc2)c(OC)cc1O")
"21.6 µM (inactive)"
>>> reported_result("Oc1cn(-c2ccc(Cl)cc2)nc1-c1nnc(-c2ccccc2)o1")
"1.43 µM (inactive)"
>>> reported_result("O=C1/C(=C\\c2cccc(Oc3ccccc3)c2)SC(c2ccccc2)N1c1cc(Cl)ccc1Cl (stereo not drawn)")
"52.4 µM (inactive)"
>>> reported_result("c1ccc(SC(Sc2ccccc2)c2ccc3c(c2)OCO3)cc1")
"> 100 µM (inactive)"
>>> reported_result("CCCCOC(C)(C)/C=C/C(O)[C@](C)(O)[C@H]1[C@H](O)C[C@@]2(C)[C@@H]3CCc4c(cc(OC5OC(CO)C(O)C(O)C5O)c(O)c4C)C3(C)C(=O)C[C@]12C (stereo partly drawn)")
"> 100 µM (inactive)"
>>> reported_result("COc1ccc2c(=O)oc3c(OC)cc(CCN(C)C)c4c(=O)oc1c2c34")
"10.5 µM (inactive)"

====

Test system: RXF 393
Protocol details: NCI tumour cell line growth inhibition, 48 h
Calls of active or inactive are those of the source. Cut-off read from the data, not from the text of the source: active = GI50 up to about 1.1 µM and inactive = higher.
Classes used: active, inactive

>>> cat("CCCCCC(/C=C/c1ncccc1OCCCCCC(=O)O)=N\\NC1=NCCN1")
"inactive"
>>> cat("CCOC(=O)C(C/C=C/CO)N(C)C(=O)OC(C)(C)C (stereo unspecified)")
"inactive"
>>> cat("Cc1ccc(-c2cc(-c3ccc(Cl)cc3)nc(/N=C3\\C(=O)N(CN4CCOCC4)c4ccccc43)n2)cc1")
"inactive"
>>> cat("O=C(CCOS(=O)(=O)CF)N1CCN(C(=O)CCOS(=O)(=O)CF)CC1")
"inactive"
>>> cat("COC(=O)CCC1(CCC(=O)OC)CCCCCCC(CCC(=O)OC)(CCC(=O)OC)C(=O)C1=O")
"inactive"
>>> cat("COc1cc(CN[C@H]2CCc3cc(OC)c(OC)c(OC)c3-c3ccc(SC)c(=O)cc32)cc(OC)c1")
"active"
>>> cat("O=C1c2ccccc2-n2nnnc2C2CSCN12 (stereo unspecified)")
"inactive"
>>> cat("Nc1c2c(nc3cc(F)c(F)cc13)CCC2")
"inactive"
>>> cat("COS(=O)CCOC(=O)c1ccccc1SSc1ccccc1C(=O)OCCS(=O)OC (stereo unspecified)")
"inactive"
>>> cat("CN(C)c1nc(-c2ccccc2)c(C(=O)c2c[nH]c3ccccc23)s1")
"inactive"
>>> cat("Nc1ncnc2c1nc(Cl)n2[C@@H]1O[C@@H]2COP(=O)(O)O[C@H]2[C@H]1O")
"inactive"
>>> cat("CN1CCOC1c1ccccc1O (stereo unspecified)")
"inactive"
>>> cat("COc1ccc(C(SCCO)(c2ccccc2)c2ccc(OC)cc2)cc1")
"inactive"
>>> cat("O=[N+]([O-])C1C2C=CC(C2)[C@H]1c1ccc(Cl)cc1Cl (stereo partly specified)")
"inactive"
>>> cat("CC1(C)N=C(N)N=C(N)N1c1ccc(CCc2ccccc2)cc1")
"inactive"
>>> cat("CCOC(=O)C1(C#N)C(c2ccccc2)CC(O)(c2ccc(Cl)cc2)C(C(=O)c2ccc(Cl)cc2)C1c1ccccc1 (stereo unspecified)")
"inactive"
>>> cat("Oc1cc(-c2ccccn2)nc2cc(F)ccc12")
"inactive"
>>> cat("C/C(=N\\n1c(Cc2ccccc2)n[nH]c1=O)c1ccccc1")
"inactive"
>>> cat("CCCN(CCCCC(NC(C)=O)C(=O)NCc1ccccc1)C(=O)N(C)N=O (stereo unspecified)")
"inactive"
>>> cat("CC(=O)NNc1nc(C)c(C(/C=C/c2ccc(Cl)cc2)=N\\NS(=O)(=O)c2ccc(C)cc2)s1")
"inactive"
>>> cat("CCOC(=O)c1csc(NC(=O)C(C)N2CCCCC2)n1 (stereo unspecified)")
"inactive"

====

Tested on: HCT-15
# GI50 per record follows
Measured endpoint: GI50 (µM)

>>> reported_result("C/C(=C\\CO)CC/C=C(\\C)CNc1ccc([N+](=O)[O-])cc1")
30.1
>>> reported_result("CCN1c2ccccc2-c2c3c1cc(C)cc3c1ccccc1[n+]2CC")
6.22
>>> reported_result("COc1cc(C(=O)C2CC3(CCC2(O)c2cc(OC)c(OC)c(OC)c2)CC(=O)Nc2ccccc2C3=O)cc(OC)c1OC (stereo not drawn)")
50.6
>>> reported_result("O=C1C(CN2CCCCC2)CCCC1CN1CCCCC1 (stereo not drawn)")
14.2
>>> reported_result("C=C1c2nc3ccccc3n2C=C(c2ccccc2)N1c1ccccc1")
13.6
>>> reported_result("Nc1ncnc2c1nc(Cl)n2[C@@H]1O[C@@H]2COP(=O)(O)O[C@H]2[C@H]1O")
6.7
>>> reported_result("Cc1c2ccncc2c(C)c2c1[nH]c1ccccc12")
0.402
>>> reported_result("COc1ccc(C2=C(OC(C)=O)c3cccn3-c3ccccc3S2)cc1")
1.18

====

Tested on: NCI/ADR-RES
Protocol details: NCI tumour cell line growth inhibition, 48 h
Activity calls are given as the source filed them. Rule as the data show it: active = GI50 up to about 1.1 µM and inactive = higher.
Classes used: active, inactive

>>> cat("OCC1OC(n2cnc3c2NC=NC[C@H]3O)C(O)C1O (stereo partly specified)")
"inactive"
>>> cat("CC1CNC(c2cccc(-c3nc(-c4cccc(C5=NC(C)CN5)c4)nc(N(C)C)n3)c2)=N1 (stereo unspecified)")
"inactive"
>>> cat("Cc1c(S(=O)(=O)c2ccccc2)c(N)n(CCN(C)C)c1C")
"inactive"
>>> cat("CN(C)/N=N/c1ccc(NC=O)cc1")
"inactive"
>>> cat("CCC(=O)OCN(C)c1nc(N(C)COC(=O)CC)nc(N(C)COC(=O)CC)n1")
"inactive"
>>> cat("OC1C2CN3CCN(C2)CC1(c1ccccc1)C3 (stereo unspecified)")
"inactive"
>>> cat("CCn1c(=O)c(C(=O)O)c(Cl)c2cc3c(cc21)OCO3")
"inactive"
>>> cat("O=S(=O)(Oc1ccc2ccccc2c1-c1c(OS(=O)(=O)C(F)(F)F)ccc2ccccc12)C(F)(F)F")
"inactive"
>>> cat("C/C(=N\\Nc1ccccc1Br)c1cccc(/C(C)=N/Nc2ccccc2Br)n1")
"inactive"
>>> cat("CC(=O)OCc1ccc(-c2nc(C#N)c(N)o2)o1")
"inactive"
>>> cat("C=C(Cl)/C(=C\\Br)CCC(Cl)C(C)C.C=C(Cl)/C(=C\\Cl)CCC(Cl)C(C)C (stereo unspecified)")
"inactive"
>>> cat("CC(C)=CCc1c(O)c(CC2=C(O)C(CC=C(C)C)(C(=O)C(C)C)C(O)=C(C)C2=O)c(O)c(C(=O)C(C)C)c1O (stereo unspecified)")
"inactive"
>>> cat("CO[C@H]1C[C@H](O[C@H]2CC[C@@]3(C)[C@H](CC[C@@H]4[C@@H]3CC[C@]3(C)[C@@H](C5=CC(=O)OC5)CC[C@]43O)C2)O[C@H](C)[C@H]1O")
"active"
>>> cat("C/C(=N/NC(=S)Nc1ccc([N+](=O)[O-])cc1)c1cccc(/C(C)=N\\NC(=S)Nc2ccc([N+](=O)[O-])cc2)n1")
"active"
>>> cat("CC(C)c1oc(=O)cc2c1C(O)C1OC(=O)C3(C)C(O)C4OC4C2(C)C13 (stereo unspecified)")
"inactive"
>>> cat("Cc1ccc2c(c1)C(=O)C1(C2)Cc2ccc(C)cc2C1=O")
"inactive"
>>> cat("CN1CCOC1c1ccccc1O (stereo unspecified)")
"inactive"
>>> cat("CN(C)c1cccc(/C=C(\\C#N)c2ccccc2)c1")
"active"
>>> cat("CC(C)(C)OC(=O)CC(NC(=O)OC(C)(C)C)C(=O)NC(C(=O)O)C(O)c1ccccc1 (stereo unspecified)")
"inactive"
>>> cat("Cc1nc2ccc(F)cc2c2c1CCO2")
"inactive"
>>> cat("COC(=O)C(=O)Nc1cc2c3c(c1)Oc1cccc4c1C3(C)c1c(cccc1O2)O4")
"inactive"
